Each record here notes measured Ratio IC50.
Species: Homo sapiens
Assay: Selectivity ratio of IC50 for human MAO-A to IC50 for human MAO-B

Smiles Input: N#Cc1ccc(-c2csc(N/N=C\c3cccc4ccccc34)n2)cc1
Ratio IC50: > 91
--
Smiles Input: N#Cc1ccc(-c2csc(N/N=C\c3ccc4c(c3)OCO4)n2)cc1
Ratio IC50: > 332
--
Smiles Input: C/C(=N/Nc1nc(-c2ccc(F)cc2F)cs1)c1ccccc1
Ratio IC50: 235
--
Smiles Input: C/C(=N/Nc1nc(-c2ccc(C#N)cc2)cs1)c1cccs1
Ratio IC50: > 32
--
Smiles Input: N#Cc1ccc(-c2csc(N/N=C\c3ccco3)n2)cc1
Ratio IC50: > 67
--
Smiles Input: C/C(=N/Nc1nc(-c2ccc(C#N)cc2)cs1)c1nccs1
Ratio IC50: 1.4
--
Smiles Input: N#Cc1ccc(-c2csc(N/N=C\c3ccncc3)n2)cc1
Ratio IC50: > 15
--
Smiles Input: Fc1ccc(-c2csc(N/N=C\c3cccs3)n2)cc1
Ratio IC50: > 295
--
Smiles Input: Fc1ccc(-c2csc(N/N=C\c3ccncc3)n2)cc1
Ratio IC50: > 890
--
Smiles Input: Fc1ccc(-c2csc(N/N=C\c3cccnc3)n2)c(F)c1
Ratio IC50: > 504
--
Smiles Input: Fc1ccc(-c2csc(N/N=C\c3ccc4c(c3)OCO4)n2)cc1
Ratio IC50: > 93
--
Smiles Input: C/C(=N/Nc1nc(-c2ccc(C#N)cc2)cs1)c1ccncc1
Ratio IC50: 44
--
Smiles Input: N#Cc1ccc(-c2csc(N/N=C\c3cccs3)n2)cc1
Ratio IC50: 294

###

Each record here notes measured IC50.
Target: Amine oxidase [flavin-containing] B (Homo sapiens, UniProt P27338)
Sequence (P27338 whole entry): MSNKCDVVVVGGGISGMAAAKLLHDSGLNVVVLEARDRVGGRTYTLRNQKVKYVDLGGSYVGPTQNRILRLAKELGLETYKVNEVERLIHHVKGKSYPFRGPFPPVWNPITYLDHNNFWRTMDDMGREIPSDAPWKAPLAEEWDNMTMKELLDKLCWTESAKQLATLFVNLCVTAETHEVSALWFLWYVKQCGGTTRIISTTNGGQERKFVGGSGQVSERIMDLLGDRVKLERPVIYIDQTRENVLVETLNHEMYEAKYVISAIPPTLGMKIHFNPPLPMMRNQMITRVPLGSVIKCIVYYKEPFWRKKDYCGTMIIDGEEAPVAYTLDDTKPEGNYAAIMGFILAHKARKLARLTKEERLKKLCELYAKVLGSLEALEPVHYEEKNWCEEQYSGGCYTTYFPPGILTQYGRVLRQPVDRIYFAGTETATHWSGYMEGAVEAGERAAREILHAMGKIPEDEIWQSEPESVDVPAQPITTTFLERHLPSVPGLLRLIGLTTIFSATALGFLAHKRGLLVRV
Experiment: biochemical
Description: Inhibition of human MAO-B expressed in baculovirus infected BTI-TN-5B1-4 cells using p-tyramine as substrate incubated for 15 mins prior to substrate addition measured for 15 mins by Amplex red assay

Smiles Input: C/C(=N/Nc1nc(-c2ccc(F)cc2)cs1)c1ccccn1
IC50 / nM: 24.3
--
Smiles Input: N#Cc1ccc(-c2csc(N/N=C\c3cccnc3)n2)cc1
IC50 / nM: 947
--
Smiles Input: Fc1ccc(-c2csc(N/N=C\c3ccncc3)n2)c(F)c1
IC50 / nM: 549
--
Smiles Input: C/C(=N/Nc1nc(-c2ccc(F)cc2)cs1)c1ccncc1
IC50 / nM: 2.54
--
Smiles Input: C/C(=N/Nc1nc(-c2ccc(F)cc2F)cs1)c1ccccc1
IC50 / nM: 90.3
--
Smiles Input: N#Cc1ccc(-c2csc(N/N=C\c3ccco3)n2)cc1
IC50 / nM: 1490
--
Smiles Input: Fc1ccc(-c2csc(N/N=C\c3cccnc3)n2)cc1
IC50 / nM: 482
--
Smiles Input: C/C(=N/Nc1nc(-c2ccc(F)cc2F)cs1)c1ccco1
IC50 / nM: 40.1
--
Smiles Input: C/C(=N/Nc1nc(-c2ccc([N+](=O)[O-])cc2)cs1)c1ccccn1
IC50 / nM: 26.7
--
Smiles Input: Fc1ccc(-c2csc(N/N=C\c3cccc4ccccc34)n2)cc1
IC50 / nM: 12800
--
Smiles Input: N#Cc1ccc(-c2csc(N/N=C\c3ccc4c(c3)OCO4)n2)cc1
IC50 / nM: 301
--
Smiles Input: C/C(=N/Nc1nc(-c2ccc(F)cc2)cs1)c1nccs1
IC50 / nM: 1210
--
Smiles Input: C/C(=N/Nc1nc(-c2ccc(F)cc2)cs1)c1ccco1
IC50 / nM: 320
--
Smiles Input: N#Cc1ccc(-c2csc(N/N=C\c3c[nH]c4ccccc34)n2)cc1
IC50 / nM: 762
--
Smiles Input: C/C(=N/Nc1nc(-c2ccc(F)cc2)cs1)c1cccs1
IC50 / nM: 15.5
--
Smiles Input: Fc1ccc(-c2csc(N/N=C\c3cccnc3)n2)c(F)c1
IC50 / nM: 199
